assay: Half life in NMRI mouse at 3 mg/kg, iv; format: ADME, organism-based; design: dose 3 mg/kg, route intravenous; details: in vivo
measured_property: half-life
Units required after the number.

[ask] Report half-life for Cc1ccc(NC(=O)CN(Cc2ccc(OC(C)(C)C(=O)O)cc2)Cc2ccco2)c(C)c1 please.
[reply] 2 h

* * *

target: Peroxisome proliferator-activated receptor gamma (Mus musculus); assay: Agonist activity at Gal4-fused mouse PPARgamma
Sequence (P37238 whole entry, the tested form may be a part): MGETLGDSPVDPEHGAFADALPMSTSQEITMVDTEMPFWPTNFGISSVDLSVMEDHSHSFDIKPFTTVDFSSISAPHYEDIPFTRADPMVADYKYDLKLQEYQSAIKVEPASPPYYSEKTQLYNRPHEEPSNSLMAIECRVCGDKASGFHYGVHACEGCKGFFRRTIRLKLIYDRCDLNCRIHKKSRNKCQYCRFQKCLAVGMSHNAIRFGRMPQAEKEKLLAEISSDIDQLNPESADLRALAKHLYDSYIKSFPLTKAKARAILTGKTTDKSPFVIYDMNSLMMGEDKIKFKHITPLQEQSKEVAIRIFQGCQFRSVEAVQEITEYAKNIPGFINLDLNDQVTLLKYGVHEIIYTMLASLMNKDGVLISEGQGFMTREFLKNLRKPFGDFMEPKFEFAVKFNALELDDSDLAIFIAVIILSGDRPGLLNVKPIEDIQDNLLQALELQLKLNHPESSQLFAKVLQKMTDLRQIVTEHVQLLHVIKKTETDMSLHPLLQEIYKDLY
measured_property: pEC50
Please express pEC50 as -log10 of the molar concentration.

Cc1ccc(NC(=O)CN(Cc2ccc(OC(C)(C)C(=O)O)cc2)Cc2ccco2)c(C)c1 = 6.52

Next compound, pEC50 to be filled in.
[ask] Report pEC50 for CCCCCCCN(CCc1ccc(SC(C)(C)C(=O)O)cc1)C(=O)Nc1ccc(F)cc1F [GSK-9578] please.
[reply] 5.60

* * *

assay: Clearance in NMRI mouse at 3 mg/kg, iv; format: ADME, organism-based; parameters: dose 3 mg/kg, route intravenous; conditions: in vivo
measured_property: clearance (L/h/kg)
Express your answer in L/h/kg, writing the number without its unit.

[ask] Report clearance for Cc1ccc(NC(=O)CN(Cc2ccc(OC(C)(C)C(=O)O)cc2)Cc2ccco2)c(C)c1 please.
[reply] 5.35

* * *

assay: Tmax in NMRI mouse at 10 mg/kg, po; format: ADME, organism-based; parameters: dose 10 mg/kg, route oral; details: in vivo
measured_property: Tmax

[ask] Report Tmax for Cc1ccc(NC(=O)CN(Cc2ccc(OC(C)(C)C(=O)O)cc2)Cc2ccco2)c(C)c1 please.
[reply] 30 min

* * *

Here, each record is paired with measured pEC50 data.
target: Peroxisome proliferator-activated receptor alpha (Homo sapiens, UniProt Q07869); experiment: Agonist activity at Gal4-fused human PPARalpha
Sequence (Q07869 whole entry, the tested form may be a part): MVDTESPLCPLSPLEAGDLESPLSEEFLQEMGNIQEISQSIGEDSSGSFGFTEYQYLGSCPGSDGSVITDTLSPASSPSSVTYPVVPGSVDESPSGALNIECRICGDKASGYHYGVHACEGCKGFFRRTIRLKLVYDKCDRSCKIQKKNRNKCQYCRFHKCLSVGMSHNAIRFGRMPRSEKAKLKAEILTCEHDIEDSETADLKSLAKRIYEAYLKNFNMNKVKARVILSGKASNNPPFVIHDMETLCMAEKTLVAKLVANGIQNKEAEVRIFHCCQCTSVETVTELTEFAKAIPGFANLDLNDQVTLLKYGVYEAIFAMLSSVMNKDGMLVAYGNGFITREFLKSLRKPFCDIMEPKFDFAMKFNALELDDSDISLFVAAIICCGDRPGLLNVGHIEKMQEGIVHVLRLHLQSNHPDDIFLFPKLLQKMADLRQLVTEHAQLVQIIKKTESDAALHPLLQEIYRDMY
Please express pEC50 as -log10 of the molar concentration.

Examples with answers:
Cc1ccc(NC(=O)CN(Cc2ccc(OC(C)(C)C(=O)O)cc2)Cc2cccs2)c(C)c1 = 6.15
CC(C)(Oc1ccc(CN(CC(=O)Nc2ccc(F)cc2F)Cc2ccco2)cc1)C(=O)O = 5.82
CC(C)(Oc1ccc(CN(CC(=O)NCc2ccccc2)Cc2ccco2)cc1)C(=O)O = 4.89

[ask] Report pEC50 for COc1cccc(NC(=O)CN(Cc2ccc(OC(C)(C)C(=O)O)cc2)Cc2ccco2)c1 please.
[reply] 5.52

[ask] Report pEC50 for Cc1ccc(C)c(NC(=O)CN(Cc2ccc(OC(C)(C)C(=O)O)cc2)Cc2ccco2)c1 please.
[reply] 6.22

* * *

assay: AUC in NMRI mouse at 10 mg/kg, po; type: ADME, organism-based; parameters: dose 10 mg/kg, route oral; settings: plasma
measured_property: AUC (ng·h/mL)
Express your answer in ng·h/mL, writing the number without its unit.

[ask] Report AUC for Cc1ccc(NC(=O)CN(Cc2ccc(OC(C)(C)C(=O)O)cc2)Cc2ccco2)c(C)c1 please.
[reply] 370

* * *

experiment: Oral bioavailability in NMRI mouse at 10 mg/kg; format: ADME, organism-based; settings: in vivo
measured_property: bioavailability (%)
Express your answer in %, writing the number without its unit.

[ask] Report bioavailability for Cc1ccc(NC(=O)CN(Cc2ccc(OC(C)(C)C(=O)O)cc2)Cc2ccco2)c(C)c1 please.
[reply] 20

* * *

experiment: Aqueous solubility of the compound; format: physicochemical
measured_property: solubility (µg/mL)
Express your answer in µg/mL, writing the number without its unit.

Cc1ccc(NC(=O)CN(Cc2ccc(OC(C)(C)C(=O)O)cc2)Cc2ccco2)c(C)c1 = 500

Next compound, solubility to be filled in.
[ask] Report solubility for CCCCCCCN(CCc1ccc(SC(C)(C)C(=O)O)cc1)C(=O)Nc1ccc(F)cc1F [GSK-9578] please.
[reply] 100
